- assayedSystem: uOR (Mus musculus, UniProt P42866)
- Sequence (P42866 whole entry): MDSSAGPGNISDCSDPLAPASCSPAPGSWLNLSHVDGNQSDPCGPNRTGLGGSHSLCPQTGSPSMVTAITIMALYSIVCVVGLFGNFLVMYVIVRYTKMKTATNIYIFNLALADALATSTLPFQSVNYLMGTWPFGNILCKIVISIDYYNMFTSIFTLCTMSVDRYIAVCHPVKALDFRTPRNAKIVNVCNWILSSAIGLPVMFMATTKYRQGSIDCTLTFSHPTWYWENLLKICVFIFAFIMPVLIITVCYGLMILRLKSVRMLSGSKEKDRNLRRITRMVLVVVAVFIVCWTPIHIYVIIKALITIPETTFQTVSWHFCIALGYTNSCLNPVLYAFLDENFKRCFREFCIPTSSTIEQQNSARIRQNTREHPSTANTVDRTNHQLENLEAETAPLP
- procedureSummary: β-arrestin recruitment to uOR / receptor internalization
- Format: cell-based
- Set-up: expressed in transfected cells
- settings: maximum signal/background ratio for uOR receptor internalization at the EC50
Label class 1 when Max Fold Efficacy is at or above 5; otherwise label class 0.

Threshold query (Max Fold Efficacy >= 5) on "COC(=O)[C@@H]1C[C@H](OC(=O)Nc2csc(C)n2)C(=O)[C@H]2[C@@]1(C)CC[C@H]1C(=O)O[C@H](c3ccoc3)C[C@]21C"
class 1

Threshold query (Max Fold Efficacy >= 5) on "COC(=O)[C@@H]1C[C@H](OC(=O)Nc2ccc(C)cc2)C(=O)[C@H]2[C@@]1(C)CC[C@H]1C(=O)O[C@H](c3ccoc3)C[C@]21C"
class 1

Threshold query (Max Fold Efficacy >= 5) on "COC(=O)[C@@H]1C[C@H](OC(=O)Nc2ccc(Cl)cc2F)C(=O)[C@H]2[C@@]1(C)CC[C@H]1C(=O)O[C@H](c3ccoc3)C[C@]21C"
class 0

Threshold query (Max Fold Efficacy >= 5) on "COC(=O)[C@@H]1C[C@H](OC(=O)c2ccc(Cl)nc2)C(=O)[C@H]2[C@@]1(C)CC[C@H]1C(=O)O[C@H](c3ccoc3)C[C@]21C"
class 1

Threshold query (Max Fold Efficacy >= 5) on "COC(=O)[C@@H]1C[C@H](OC(=O)c2ccc(F)cc2)C(=O)[C@H]2[C@@]1(C)CC[C@H]1C(=O)O[C@H](c3ccoc3)C[C@]21C"
class 0

---

- assayedSystem: uOR (Mus musculus, UniProt P42866)
- procedureSummary: β-arrestin recruitment to uOR / receptor internalization
- Format: cell-based
- Parameters: expressed in transfected cells
- settings: maximum signal/background ratio for uOR receptor internalization at the EC50
assayReadout: Max Fold Efficacy
Answer with the value's number alone.

As a guide, the following entries are already answered.
molecule	Max Fold Efficacy
COC(=O)[C@@H]1C[C@H](OC(=O)c2cnc(C)nc2)C(=O)[C@H]2[C@@]1(C)CC[C@H]1C(=O)O[C@H](c3ccoc3)C[C@]21C [Formula Id-i]	4.2
COC(=O)[C@@H]1C[C@H](OC(=O)Nc2cc(C)on2)C(=O)[C@H]2[C@@]1(C)CC[C@H]1C(=O)O[C@H](c3ccoc3)C[C@]21C [Formula Ic-v]	2.4

Continue with the molecule presented below.
So what's the measured Max Fold Efficacy for this one? "COC(=O)[C@@H]1C[C@H](OC(=O)c2cnc(C)cn2)C(=O)[C@H]2[C@@]1(C)CC[C@H]1C(=O)O[C@H](c3ccoc3)C[C@]21C"
1.8

---

- assayedSystem: uOR (Mus musculus)
- procedureSummary: Agonist induced ERK 1/2 phosphorylation (efficacy and potency relative to DAMGO)
pEC50: −log10 of the molar value.
Label MET when pEC50 is at or above 6; otherwise label NOT MET.

COC(=O)[C@@H]1C[C@H](OC(=O)c2cc(C)cs2)C(=O)[C@H]2[C@@]1(C)CC[C@H]1C(=O)O[C@H](c3ccoc3)C[C@]21C MET
COC(=O)[C@@H]1C[C@H](OC(=O)c2cnc(C)nc2)C(=O)[C@H]2[C@@]1(C)CC[C@H]1C(=O)O[C@H](c3ccoc3)C[C@]21C MET
COC(=O)[C@@H]1C[C@H](OC(=O)Nc2ccc(C)cc2)C(=O)[C@H]2[C@@]1(C)CC[C@H]1C(=O)O[C@H](c3ccoc3)C[C@]21C MET
COC(=O)[C@@H]1C[C@H](OC(=O)Nc2ccc(C#N)cc2)C(=O)[C@H]2[C@@]1(C)CC[C@H]1C(=O)O[C@H](c3ccoc3)C[C@]21C MET
COC(=O)[C@@H]1C[C@H](OC(=O)Nc2ccc(Cl)c(Cl)c2)C(=O)[C@H]2[C@@]1(C)CC[C@H]1C(=O)O[C@H](c3ccoc3)C[C@]21C NOT MET
COC(=O)[C@@H]1C[C@H](OC(=O)c2cc(C)on2)C(=O)[C@H]2[C@@]1(C)CC[C@H]1C(=O)O[C@H](c3ccoc3)C[C@]21C NOT MET
COC(=O)[C@@H]1C[C@H](NC(=O)NS(=O)(=O)c2ccc(Cl)cc2)C(=O)[C@H]2[C@@]1(C)CC[C@H]1C(=O)O[C@H](c3ccoc3)C[C@]21C NOT MET
COC(=O)[C@@H]1C[C@H](OC(=O)c2ccc(F)cc2)C(=O)[C@H]2[C@@]1(C)CC[C@H]1C(=O)O[C@H](c3ccoc3)C[C@]21C NOT MET

Threshold query (pEC50 >= 6) on "COC(=O)[C@@H]1C[C@H](OC(=O)Nc2cnc(C)nc2)C(=O)[C@H]2[C@@]1(C)CC[C@H]1C(=O)O[C@H](c3ccoc3)C[C@]21C"
MET

Threshold query (pEC50 >= 6) on "COC(=O)[C@@H]1C[C@H](OC(=O)Nc2cnc(C)cn2)C(=O)[C@H]2[C@@]1(C)CC[C@H]1C(=O)O[C@H](c3ccoc3)C[C@]21C"
MET
